Biological target: CSF1R (Homo sapiens)
Assay: KINOMEscan competition binding assay for CSF1R
Parameters: DNA tag for qPCR (not a peptide); host or cells: E. coli/T7 phage or HEK-293
Details: @ 0.1 uM; read-out: CSF1R kinase binding activity, Percent (%) inhibition

Compound: COc1cc2nccc(Oc3ccc(NC(=O)c4nn(C5CCOC5)cc4OCC(F)(F)F)cc3F)c2cc1OC (stereo not shown)
inhibition at 0.1 µM, %: 60
--
Compound: COc1cc2nccc(Oc3ccc(NC(=O)c4nn(C5CCC5)cc4OCC(F)(F)F)nc3)c2cc1OC
inhibition at 0.1 µM, %: 96
--
Compound: CNCCn1cc(OCC(F)(F)F)c(C(=O)Nc2ccc(Oc3ccnc4cc(OC)c(OC)cc34)nn2)n1
inhibition at 0.1 µM, %: 38
--
Compound: COc1cc2nccc(Oc3ccc(NC(=O)c4nn(CC(C)C)cc4OCC(F)(F)F)c(F)c3)c2cc1OC
inhibition at 0.1 µM, %: 82

###

Target: Mer (Homo sapiens, UniProt Q12866)
Construct: purchased Life Technologies
Sequence (Q12866 21-999): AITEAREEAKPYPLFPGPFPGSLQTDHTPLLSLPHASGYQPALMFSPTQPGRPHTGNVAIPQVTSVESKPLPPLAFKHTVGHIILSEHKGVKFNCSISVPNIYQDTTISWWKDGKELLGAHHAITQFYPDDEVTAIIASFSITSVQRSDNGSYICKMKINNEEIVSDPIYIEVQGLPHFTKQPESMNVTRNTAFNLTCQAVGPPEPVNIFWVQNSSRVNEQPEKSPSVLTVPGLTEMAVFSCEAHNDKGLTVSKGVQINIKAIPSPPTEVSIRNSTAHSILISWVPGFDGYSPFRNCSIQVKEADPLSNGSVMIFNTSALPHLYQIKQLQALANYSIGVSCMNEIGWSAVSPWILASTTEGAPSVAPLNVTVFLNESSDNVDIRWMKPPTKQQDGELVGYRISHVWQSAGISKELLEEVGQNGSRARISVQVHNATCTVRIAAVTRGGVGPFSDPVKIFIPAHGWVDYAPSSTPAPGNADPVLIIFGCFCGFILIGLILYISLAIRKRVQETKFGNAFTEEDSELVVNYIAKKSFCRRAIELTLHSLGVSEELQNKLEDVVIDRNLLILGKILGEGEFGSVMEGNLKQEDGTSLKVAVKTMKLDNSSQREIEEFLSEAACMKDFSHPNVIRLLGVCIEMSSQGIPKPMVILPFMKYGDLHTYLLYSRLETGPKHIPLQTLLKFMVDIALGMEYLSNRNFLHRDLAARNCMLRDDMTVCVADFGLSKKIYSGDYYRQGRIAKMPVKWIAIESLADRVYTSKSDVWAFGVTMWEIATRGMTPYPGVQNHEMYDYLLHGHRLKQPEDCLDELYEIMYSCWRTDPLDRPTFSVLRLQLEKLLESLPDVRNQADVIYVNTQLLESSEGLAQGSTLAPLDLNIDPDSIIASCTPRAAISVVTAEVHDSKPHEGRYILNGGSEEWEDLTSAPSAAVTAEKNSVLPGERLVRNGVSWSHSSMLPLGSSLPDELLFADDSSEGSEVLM
Assay: LanthaScreen Eu kinase binding assay for Mer
Settings: comparison of compounds of present invention (**) vs compounds of WO2016/166250 (*); read-out: Binding activity Mer (Kd)
pKd: −log10 of the molar value.
Measured pKd of individual entries

Compound smiles: COCCn1cc(OCC(F)(F)F)c(C(=O)Nc2ccc(Oc3ccnc4cc(OC)c(OC)cc34)cn2)n1
pKd: 9.70
--
Compound smiles: CCn1cc(OCC(F)(F)F)c(C(=O)Nc2ccc(Oc3ccnc4cc(OC)c(OC)cc34)cn2)n1
pKd: 8.80
--
Compound smiles: COc1cc2nccc(Oc3ccc(NC(=O)c4nn(CC5COC5)cc4OCC(F)(F)F)nc3)c2cc1OC
pKd: 8.89
--
Compound smiles: COc1cc2nccc(Oc3ccc(NC(=O)c4n[nH]cc4OCC(F)(F)F)nc3)c2cc1OC
pKd: 7.92

###

Recorded inhibition at 0.1 µM values for a group of molecules are listed next.
Molecular target: CSF1R (Homo sapiens, UniProt P07333)
Sequence (P07333 20-972): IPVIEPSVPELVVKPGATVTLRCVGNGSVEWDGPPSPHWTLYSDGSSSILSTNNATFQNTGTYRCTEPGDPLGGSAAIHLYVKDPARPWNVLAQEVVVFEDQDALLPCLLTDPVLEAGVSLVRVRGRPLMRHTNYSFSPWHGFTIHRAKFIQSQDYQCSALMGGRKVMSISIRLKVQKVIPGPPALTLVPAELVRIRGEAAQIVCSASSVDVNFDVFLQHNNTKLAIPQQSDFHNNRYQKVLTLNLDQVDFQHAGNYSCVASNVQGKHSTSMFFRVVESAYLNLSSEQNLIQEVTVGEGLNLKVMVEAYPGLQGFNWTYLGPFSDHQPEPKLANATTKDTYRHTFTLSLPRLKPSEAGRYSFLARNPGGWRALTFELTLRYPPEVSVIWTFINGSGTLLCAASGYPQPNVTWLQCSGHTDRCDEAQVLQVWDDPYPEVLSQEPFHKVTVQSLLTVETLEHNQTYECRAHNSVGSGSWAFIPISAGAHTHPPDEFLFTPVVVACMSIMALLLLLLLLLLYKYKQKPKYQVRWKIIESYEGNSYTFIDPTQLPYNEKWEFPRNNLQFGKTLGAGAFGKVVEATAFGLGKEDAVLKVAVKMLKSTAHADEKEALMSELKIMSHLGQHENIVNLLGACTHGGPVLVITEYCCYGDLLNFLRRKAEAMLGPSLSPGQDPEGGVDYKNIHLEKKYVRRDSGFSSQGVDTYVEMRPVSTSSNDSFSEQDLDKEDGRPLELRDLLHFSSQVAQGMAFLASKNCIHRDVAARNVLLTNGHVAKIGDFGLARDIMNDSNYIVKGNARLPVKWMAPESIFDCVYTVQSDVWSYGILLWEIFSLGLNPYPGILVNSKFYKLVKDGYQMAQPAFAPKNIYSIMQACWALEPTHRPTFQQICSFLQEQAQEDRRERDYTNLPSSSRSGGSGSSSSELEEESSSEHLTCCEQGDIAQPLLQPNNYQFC
Assay: KINOMEscan competition binding assay for CSF1R
Parameters: DNA tag for qPCR (not a peptide); host or cells: E. coli/T7 phage or HEK-293
Conditions: @ 0.1 uM; read-out: CSF1R kinase binding activity, Percent (%) inhibition
Measured parameter: inhibition at 0.1 µM (%)

Molecule: CCCn1cc(OCCN(C)C)c(C(=O)Nc2ccc(Oc3ccnc4cc(OC)c(OC)cc34)c(F)c2)n1
Measured parameter: inhibition at 0.1 µM
Value reported: 5
//
Molecule: COc1cc2nccc(Oc3ccc(NC(=O)c4nn(CC5CC5)cc4OCC(F)(F)F)nc3)c2cc1OC
Measured parameter: inhibition at 0.1 µM
Value reported: 97
//
Molecule: COc1cc2nccc(Oc3ccc(NC(=O)c4nn(C(C)(C)C)cc4OCC(F)(F)F)nc3)c2cc1OC
Measured parameter: inhibition at 0.1 µM
Value reported: 93
//
Molecule: COc1cc2nccc(Oc3ccc(NC(=O)c4nn(C5CCOC5)cc4OCC(F)(F)F)c(F)c3)c2cc1OC (stereo not shown)
Measured parameter: inhibition at 0.1 µM
Value reported: 76
//
Molecule: COc1cc2nccc(Oc3ccc(NC(=O)c4nn(CC5CCCCC5)cc4OCC(F)(F)F)nc3)c2cc1OC
Measured parameter: inhibition at 0.1 µM
Value reported: 94
//
Molecule: COc1cc2nccc(Oc3ccc(NC(=O)c4nn(C5CCN(C)C5)cc4OCC(F)(F)F)cc3F)c2cc1OC (stereo not shown)
Measured parameter: inhibition at 0.1 µM
Value reported: 57
//
Molecule: CCn1nc(C(=O)Nc2ccc(Oc3ccnc4cc(OC)c(OC)cc34)cn2)c(OCC(F)(F)F)c1C
Measured parameter: inhibition at 0.1 µM
Value reported: 96
